TEST_SUMMARY: pH measurement
Assay type: physicochemical
STUDY_CONDITIONS: sample plate: 2 mL sample + 18 mL Sabourand agar medium
Below is a list of entries, each paired with its recorded PH of the Medium value.
MEASURE: PH of the Medium

INSERT INTO results (molecule, reported_measurement) VALUES
  ('O=C(O)C(=O)O', 4.30),
  ('CC(O)C(=O)O (stereo not shown)', 3.46),
  ('CC(=O)O', 4.12),
  ('O=C(O)CC(=O)O', 2.91);

====

Test system: Trichophyton mentagrophytes
TEST_SUMMARY: Agar dilution method, colony growth on sample plate
Assay type: cell-based
STUDY_CONDITIONS: T. mentagrophytes; 100-[(x-5)/(y-5)x100] vs standard plate; 2 mL sample + 18 mL medium; 28° C., 12 days
Below: a set of entries, each annotated with reported Antifungal activity.
MEASURE: Antifungal activity (%)

INSERT INTO results (compound, measure, unit_abbreviation, reported_measurement) VALUES
  ('O=C(O)CC(=O)O', 'Antifungal activity', '%', 99),
  ('O=C([O-])c1ccccc1C(=O)O.[K+] [Comp. Ex. 2, potassium hydrogen phthalate]', 'Antifungal activity', '%', 6),
  ('O=C(O)CC(O)(CC(=O)O)C(=O)O', 'Antifungal activity', '%', 80),
  ('CC(O)C(=O)O (stereo not drawn)', 'Antifungal activity', '%', 74),
  ('CC(=O)O', 'Antifungal activity', '%', 99),
  ('O=C(O)C(=O)O', 'Antifungal activity', '%', 74);

====

System: Trichophyton mentagrophytes
TEST_SUMMARY: Agar dilution method, colony growth on sample plate
Format: cell-based
STUDY_CONDITIONS: T. mentagrophytes; 2 mL sample + 18 mL Sabourand agar medium; 5 mm colony disk; 28° C., 12 days
Quick list: Diameter of the colony per entry.
MEASURE: Diameter of the colony (mm)

INSERT INTO measurements (compound, measure, unit_abbreviation, reported_measurement) VALUES
  ('CC(=O)O [Comp. Ex. 8, acetic acid]', 'Diameter of the colony', 'mm', 5.7),
  ('O=C(O)CC(O)(CC(=O)O)C(=O)O [Comp. Ex. 3, citric acid]', 'Diameter of the colony', 'mm', 14.8),
  ('O=C(O)CC(=O)O [Comp. Ex. 6, malonic acid]', 'Diameter of the colony', 'mm', 5.5),
  ('CC(O)C(=O)O (stereo not drawn) [Comp. Ex. 7, lactic acid]', 'Diameter of the colony', 'mm', 17.7),
  ('O=C([O-])c1ccccc1C(=O)O.[K+] [Comp. Ex. 2, potassium hydrogen phthalate]', 'Diameter of the colony', 'mm', 51.1),
  ('O=C(O)C(=O)O [Comp. Ex. 5, oxalic acid]', 'Diameter of the colony', 'mm', 17.6);

====

Tested on: Trichophyton rubrum
TEST_SUMMARY: Agar dilution method, colony growth on sample plate
Format: cell-based
STUDY_CONDITIONS: T. rubrum; 2 mL sample + 18 mL Sabourand agar medium; 5 mm colony disk; 28° C., 12 days
MEASURE: Diameter of the colony

INSERT INTO measurements (compound, reported_measurement) VALUES
  ('CC(O)C(=O)O (stereo not drawn)', '18.0 ± 5.0 mm'),
  ('O=C(O)C(=O)O', '36.5 ± 1.1 mm'),
  ('O=C(O)CC(O)(CC(=O)O)C(=O)O', '26.5 ± 1.5 mm'),
  ('O=C([O-])c1ccccc1C(=O)O.[K+] [Comp. Ex. 2, potassium hydrogen phthalate]', '21.0 ± 1.5 mm'),
  ('O=C(O)CC(=O)O', '5.5 ± 0.0 mm'),
  ('CC(=O)O', '5.4 ± 0.3 mm');
